Each recorded value in this set is attributed to PubChem BioAssay.

assay.procedure: growth inhibition of DIPG glioma cells, dose response, cell-based, SU-DIPG-XVII, MIPE5.0, CellTiter-Glo, qHTS (AID 1347060);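 on AC50: cells exposed to compound for 48 hours before viability readout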
condition.label: SU-DIPG-XVII viability, CellTiter-Glo ATP luminescence
Results filed as inconclusive are left out. Active and inactive are the calls of the source. Cut-off not given; nearly all actives show AC50 up to about 26 µM.
reported.endpoint: AC50

Illustrative cases are given below, each with its answer.
c1coc(CNc2ncnc3nc[nH]c23)c1; inactive
CCC[C@@H]1C[C@@H](C(=O)N[C@@H]([C@H]2O[C@H](SC)[C@H](O)[C@@H](O)[C@H]2O)[C@H](C)Cl)N(C)C1; inactive
COc1c(C)c2c(c(O)c1C/C=C(\C)CCC(=O)O)C(=O)OC2; 742 nM (active)
NC(=O)c1cccnc1; inactive
O=C(/C=C/C=C/c1ccc2c(c1)OCO2)N1CCCCC1; inactive
COc1cccc2c1C(=O)c1c(O)c3c(c(O)c1C2=O)C[C@@](O)(C(C)=O)C[C@@H]3O[C@H]1C[C@H](N)[C@H](O)[C@H](C)O1; 118 nM (active)

-- ask Please give the documented AC50 of O=C(O)c1cn(C2CC2)c2cc(N3CCNCC3)c(F)cc2c1=O
-- reply inactive

-- ask Please give the documented AC50 of Cc1ccc(N(CC2=NCCN2)c2cccc(O)c2)cc1
-- reply inactive

-- ask Please give the documented AC50 of C1COC(NC(C2CC2)C2CC2)=N1
-- reply inactive

-- ask Please give the documented AC50 of CC(=O)[C@H]1CC[C@H]2[C@@H]3CC=C4C[C@@H](O)CC[C@]4(C)[C@H]3CC[C@]12C
-- reply inactive

====

experimental.system: L-lactate dehydrogenase (Plasmodium falciparum (isolate CDC / Honduras))
assay.procedure: PfLDH activity inhibition – cell lysate, 3D7 strain, counter-screen for P. falciparum growth inhibition project (AID 2304);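 further: 0% = vehicle and 100% = reference inhibitor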
condition.label: P. falciparum 3D7 crude extract, LDH APAD/NBT absorbance; at 2 µM; stronger effect = higher value
reported.endpoint: inhibition (%)
Form entry: value (%) — number only.

Illustrative cases are given below, each with its answer.
CC(C)(C)c1ccc(CN2CCC(NC(=O)c3ccc(-c4ccccc4Cl)s3)CC2)cc1; 4
O=C(Nc1ccncc1)c1cn(-c2ccccc2)nc1-c1cccs1; 4

-- ask Please give the documented inhibition of CS(=O)(=O)c1ccc(CNCc2cccc(-c3cccc(-c4nc5ccc(F)cc5[nH]4)c3)c2)cc1
-- reply -3

====

assay.procedure: growth inhibition of DIPG glioma cells, dose response, cell-based, SU-DIPG-IV, MIPE4.0, CellTiter-Glo, qHTS (AID 1347063);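 further: compound exposure lasted 48 hours before the viability readout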
condition.label: SU-DIPG-IV viability, CellTiter-Glo ATP luminescence
Records with an inconclusive call do not appear. Calls of active or inactive are those of the source. The limit is not given here; nearly all actives have AC50 up to about 30 µM.
Use one of these outcomes when replying: T = active, F = inactive

Past entries and their recorded results:
N=C(N)c1ccc2cc(OC(=O)c3ccc(N=C(N)N)cc3)ccc2c1; F
Cc1c(C(=O)NN2CCCCC2)nn(-c2ccc(Cl)cc2Cl)c1-c1ccc(Cl)cc1; T
Nc1cc(C(Cl)=C(Cl)Cl)c(S(N)(=O)=O)cc1S(N)(=O)=O; F

-- ask Fill in: this test's call for CN(C)[C@@H](CCOc1cccc2ccccc12)c1ccccc1 is ___
-- reply T

-- ask Fill in: this test's call for COc1cc([C@@H]2c3cc4c(cc3[C@@H](O[C@@H]3O[C@@H]5CO[C@@H](c6cccs6)O[C@H]5[C@H](O)[C@H]3O)[C@H]3COC(=O)[C@H]23)OCO4)cc(OC)c1O is ___
-- reply T

-- ask Fill in: this test's call for Cc1cc(=O)oc2cc(O)ccc12 is ___
-- reply F

-- ask Fill in: this test's call for Cc1[nH]c(=O)c(C#N)cc1-c1ccc2nccn2c1 is ___
-- reply F

-- ask Fill in: this test's call for CC(C)[N+]1(C)C2CCC1CC(OC(=O)C(CO)c1ccccc1)C2 (stereo not given) is ___
-- reply F

-- ask Fill in: this test's call for CCOCC(O)COc1ccc(NC(=O)CC[S+](C)C)cc1 (stereo not given) is ___
-- reply F

-- ask Fill in: this test's call for NC(=NCc1ccccc1)NC(=O)c1nc(Cl)c(N)nc1N is ___
-- reply F

-- ask Fill in: this test's call for CC1(C)[C@@H](O)CC[C@]2(C)[C@H]3C(=O)C=C4[C@@H]5C[C@@](C)(C(=O)O)CC[C@]5(C)CC[C@@]4(C)[C@]3(C)CC[C@@H]12 is ___
-- reply F

-- ask Fill in: this test's call for Cc1oc(=O)oc1CN1CCN(c2cc3c(cc2F)c(=O)c(C(=O)O)c2n3C(C)S2)CC1 (stereo not given) is ___
-- reply F

-- ask Fill in: this test's call for C[C@@H]1C[C@H]2[C@@H]3CCC4=CC(=O)C=C[C@]4(C)[C@@]3(Cl)[C@@H](O)C[C@]2(C)[C@@]1(OC(=O)c1ccco1)C(=O)CCl is ___
-- reply T

-- ask Fill in: this test's call for CC(C)OC(=O)C(C)(C)Oc1ccc(C(=O)c2ccc(Cl)cc2)cc1 is ___
-- reply F

-- ask Fill in: this test's call for CCCCCCOC(=O)NC(=N)c1ccc(NCc2nc3cc(C(=O)N(CCC(=O)OCC)c4ccccn4)ccc3n2C)cc1 is ___
-- reply F

====

Each entry below lists one item and its recorded fold change value.
assay.procedure: sensitizers of A549 cells to miR-34 induction, primary screen, imaging, A549 dox-inducible miR-34, nuclei and caspase counts (AID 1347080)
condition.label: A549 miR-34 inducible, Hoechst nuclei count, 48 h; measured here: relative caspase fold change +Dox/-Dox
Give the value as a plain number.

O=c1c2ccccc2oc2ccccc12; 0.506
CCCCN1C[C@H](O)[C@@H](O)[C@H](O)[C@H]1CO; 0.958
CCCCCCCCCCCCCCCC(=O)OC/C=C(C)/C=C/C=C(C)/C=C/C1=C(C)CCCC1(C)C; 0.861
CC(C)OC(=O)c1cc2c(OCC(O)CNC(C)(C)C)cccc2[nH]1 (stereo unspecified); 0.769
CN(C)CCN(Cc1ccc(Cl)cc1)c1ccccn1; 1.28

-- ask Please give the documented fold change of CC1=C(CC(=O)O)c2cc(F)ccc2/C1=C\c1ccc(S(C)(=O)=O)cc1
-- reply 1.86

-- ask Please give the documented fold change of O=S(=O)(O)Oc1ccc(C(c2ccc(OS(=O)(=O)O)cc2)c2ccccn2)cc1
-- reply 1.41

-- ask Please give the documented fold change of COc1cc(S(C)=O)ccc1-c1nc2ncccc2[nH]1 (stereo unspecified)
-- reply 1.41

-- ask Please give the documented fold change of CCCCCCCCCCCCCCCCO
-- reply 0.439

-- ask Please give the documented fold change of Cc1nnc(C(=O)NC(C)(C)c2nc(C(=O)NCc3ccc(F)cc3)c(O)c(=O)n2C)o1
-- reply 1.04

-- ask Please give the documented fold change of Cc1cc2c(OCC(CNC(C)(C)C)OC(=O)c3ccccc3)cccc2[nH]1 (stereo unspecified)
-- reply 1.26

====

Each entry below lists one item and its recorded luciferase signal value.
experimental.system: Mitogen-activated protein kinase 7 (Homo sapiens) (UniProt Q13164)
Sequence (Q13164 whole entry, looked up, the tested form may be a part): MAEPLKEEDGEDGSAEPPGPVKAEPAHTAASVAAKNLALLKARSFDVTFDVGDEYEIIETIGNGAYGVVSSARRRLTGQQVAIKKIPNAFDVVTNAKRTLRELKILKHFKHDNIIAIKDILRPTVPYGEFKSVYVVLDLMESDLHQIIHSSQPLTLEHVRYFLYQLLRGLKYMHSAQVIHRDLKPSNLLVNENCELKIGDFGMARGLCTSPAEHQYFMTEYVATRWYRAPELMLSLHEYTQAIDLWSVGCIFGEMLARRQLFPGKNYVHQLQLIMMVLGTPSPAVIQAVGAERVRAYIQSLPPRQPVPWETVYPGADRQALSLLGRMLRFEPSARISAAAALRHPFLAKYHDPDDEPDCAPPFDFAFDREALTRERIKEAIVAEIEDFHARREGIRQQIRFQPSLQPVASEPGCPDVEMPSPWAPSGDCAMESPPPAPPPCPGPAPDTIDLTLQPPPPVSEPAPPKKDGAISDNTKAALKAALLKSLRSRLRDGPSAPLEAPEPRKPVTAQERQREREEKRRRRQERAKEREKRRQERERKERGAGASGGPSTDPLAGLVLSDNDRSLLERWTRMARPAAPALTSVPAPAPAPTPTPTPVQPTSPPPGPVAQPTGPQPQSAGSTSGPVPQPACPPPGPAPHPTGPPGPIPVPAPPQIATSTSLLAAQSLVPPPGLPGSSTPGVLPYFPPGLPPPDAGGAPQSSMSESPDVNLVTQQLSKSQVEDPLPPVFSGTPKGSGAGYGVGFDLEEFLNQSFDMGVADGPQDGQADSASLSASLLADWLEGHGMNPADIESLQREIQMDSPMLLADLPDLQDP
assay.procedure: ERK5 transactivation activators in reporter cells, primary screen, cell-based, HTS (AID 1508626);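 further: luciferase driven by Gal4-ERK5 fusion binding five Gal4 sites before minimal TATA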
condition.label: HeLa Gal4-ERK5 transactivation, 18 h, at 5 µM, stronger effect = higher value
The source made the active and inactive calls.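 How the source made its calls: active means luciferase signal above three times the same-plate solvent-only control wells; inactive means the rest.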

Illustrative cases are given below, each with its answer.
COC1=C[C@@H](C)[C@@H]2C[C@H]3OC(=O)C[C@H]4C(C)=C(OC)C(=O)[C@H]([C@@]2(C)C1=O)[C@@]34C; 40 AU (inactive)
C[C@]12CC[C@@H]3c4ccc(O)cc4CC[C@H]3[C@@H]1CC[C@@H]2O; 184 AU (inactive)
C=CC(C1=CC(=O)C(OC)=CC1=O)c1ccc(OC)cc1 (stereo not given); 36 AU (inactive)
COc1ccc(-c2cc(=O)c3c(OC)c(OC)c(OC)c(OC)c3o2)cc1; 100 AU (inactive)

Attention now turns to another entry.
-- ask Please give the documented luciferase signal of COc1cc(C)c(C(=O)Oc2cc(C)c(C(=O)O)c(O)c2C)c(O)c1C=O
-- reply 120 AU (inactive)

====

Each entry below lists one item and its recorded nuclear beta-catenin stimulation value.
assay.procedure: stimulators of nuclear beta-catenin in C2C12, primary screen, imaging, WNT3A-conditioned medium, mouse C2C12, NPC library (AID 1117326)
condition.label: stimulation, at 2 µM, stronger effect = higher value
Form entry: value (%) — number only.

Illustrative cases are given below, each with its answer.
CCCCc1ncc(/C=C(\Cc2cccs2)C(=O)O)n1Cc1ccc(C(=O)O)cc1; 12.2
CCCCN(CCCC)CC(O)c1cc(Cl)cc2c1-c1ccc(Cl)cc1/C2=C/c1ccc(Cl)cc1 (stereo not drawn); -0.3
CCCCOCCOCCOCc1cc2c(cc1CCC)OCO2; 1.7

-- ask Please give the documented nuclear beta-catenin stimulation of NC(=O)C(c1ccccc1)(c1ccccc1)[C@@H]1CCN(CCc2ccc3c(c2)CCO3)C1
-- reply 1.7

-- ask Please give the documented nuclear beta-catenin stimulation of CCOC(=O)[C@H](CCc1ccccc1)N[C@H]1CS[C@H](c2cccs2)CN(CC(=O)O)C1=O
-- reply -0.9

-- ask Please give the documented nuclear beta-catenin stimulation of CCC1=C[C@@H]2CN(C1)Cc1c([nH]c3ccccc13)[C@@](C(=O)OC)(c1cc3c(cc1OC)N(C)[C@H]1[C@@](O)(C(=O)OC)[C@H](OC(C)=O)[C@]4(CC)C=CCN5CC[C@]31[C@@H]54)C2
-- reply 72.7

-- ask Please give the documented nuclear beta-catenin stimulation of C[C@@H]1C[C@H]2[C@@H]3CCC4=CC(=O)C=C[C@]4(C)[C@@]3(Cl)[C@@H](O)C[C@]2(C)[C@@]1(OC(=O)c1ccco1)C(=O)CCl
-- reply 2.8

-- ask Please give the documented nuclear beta-catenin stimulation of CNC1CCCN(c2c(F)cc3c(=O)c(C(=O)O)cn(C4CC4)c3c2OC)C1 (stereo not drawn)
-- reply 0
